Test system: SUDHL10
Method summary: Induction of caspase-3/7 activity (Caspase-Glo 3/7), SUDHL10
Assay type: cell-based
Study conditions: Homo sapiens, SU-DHL10, 3 h, caspase-3/7 induction, SUDHL10 cells, 3 h treatment; median
Overview of recorded EC50 for various compounds
Observation type: EC50 (µM)

Compound: COCCn1nc2c(c1C1CC1)-c1cccc3c(CCCOc4cccc5ccccc45)c(C(=O)O)n(c13)CCCCOC2 (racemic)
Observation type: EC50
Sign qualifier: =
Assay result: 14.9
--
Compound: COCCn1nc2c(c1CN1CCOCC1)-c1cccc3c(CCCOc4cccc5ccccc45)c(C(=O)O)n(c13)CCCN(C)C2 (single isomer, unassigned; enantiomer 1) [Example 057]
Observation type: EC50
Sign qualifier: =
Assay result: 24.7
--
Compound: CCc1nn(C)c2c1-c1cccc3c(CCCOc4cccc5c4CCCC5)c(C(=O)O)n(c13)CCCCOC2 (racemic)
Observation type: EC50
Sign qualifier: =
Assay result: 32
--
Compound: CN1CCCn2c(C(=O)O)c(CCCOc3cccc4ccccc34)c3cccc(c32)-c2c(nn3c2OCCC3)C1 (racemic)
Observation type: EC50
Sign qualifier: >
Assay result: 33
--
Compound: Cc1nn(C)c2c1-c1cccc3c(CCCOc4cccc5ccccc45)c(C(=O)O)n(c13)CCCN(c1ccccc1)C2 (racemic)
Observation type: EC50
Sign qualifier: >
Assay result: 30
--
Compound: CCc1nn(C)c2c1-c1c(C)ccc3c(C(C)CCOc4cccc5ccccc45)c(C(=O)O)n(c13)CCCCOC2 (racemic) [Example 271]
Observation type: EC50
Sign qualifier: >
Assay result: 33
--
Compound: CN(C)S(=O)(=O)N1CCN(c2ccc(OCc3nn(C)c4c3-c3cccc5c(CCCOc6cccc7ccccc67)c(C(=O)O)n(c35)CC=CCOC4)cc2)CC1 (racemic)
Observation type: EC50
Sign qualifier: =
Assay result: 4.39
--
Compound: CC(C)OCc1nn(C)c2c1-c1cccc3c(CCCOc4cccc5c4CCCC5)c(C(=O)O)n(c13)CCCCOC2 (racemic)
Observation type: EC50
Sign qualifier: >
Assay result: 33
--
Compound: Cn1nc(COc2ccc(N3CCOCC3)cc2)c2c1COCC=CCn1c(C(=O)O)c(CCCOc3cccc4ccccc34)c3cccc-2c31 (single isomer, unassigned; enantiomer 1)
Observation type: EC50
Sign qualifier: =
Assay result: 22.5
--
Compound: Cn1nc(CN2CCOCC2)c2c1COCC=CCn1c(C(=O)O)c(CCCOc3cccc4ccccc34)c3cccc-2c31 (racemic) [Example 132]
Observation type: EC50
Sign qualifier: >
Assay result: 33
--
Compound: Cc1ccc2c(C(C)CCOc3cccc4ccccc34)c(C(=O)O)n3c2c1-c1c(C)nn(C)c1COCCCC3 (racemic)
Observation type: EC50
Sign qualifier: >
Assay result: 33
--
Compound: Cc1cc(OCCCc2c(C(=O)O)n3c4c(cccc24)-c2c(COc4ccccc4)nn(C)c2CN(C)CCC3)cc(C)c1Cl (racemic) [Example 1-84]
Observation type: EC50
Sign qualifier: >
Assay result: 33
